src = patent USRE48461E1

# AR mRNA levels (% baseline value) after treatment with DHT per entry
System: AR mRNA
Assay: AR mRNA levels in LMR20 cells (with/without DHT or R1881)
Format: cell-based, human
Details: LMR20 cells, DHT 10 nM 72 hrs, ASO 0.04 μM
Oligonucleotides are written 5' to 3', each unit as a sugar letter and its base; * is a phosphorothioate linkage, no mark a phosphodiester; rarer units and linkages stand in square brackets, end groups in braces. Plain capitals give the bases only. e = 2'-O-(2-methoxyethyl) (MOE); l = locked nucleic acid (LNA); k = constrained ethyl (cEt); [5mC] = 5-methylcytosine; d = 2'-deoxy (DNA)
ENDPOINT NAME: AR mRNA levels (% baseline value) after treatment with DHT

>>> value("560131 (antisense kT*kT*kG*dA*dT*dT*dT*dA*dA*dT*dG*dG*kT*kT*kG*e[5mC]) [compound 560131]")
89
>>> value("554221 (ACCAAGTTTCTTCAGC; sugars from the 5' end l3 d10 l3, all phosphorothioate, methylation of C not given here) [compound 554221]")
137
>>> value("569236 (antisense eT*kG*kA*kT*dT*dT*dA*dA*dT*dG*dG*kT*kT*kG*e[5mC]*eA) [compound 569236]")
94
>>> value("549458 (kG*kT*kT*dG*dA*dT*dT*dT*dA*dA*dT*dG*dG*kT*kT*kG) [compound 549458]")
91
